Value source: paper PMC4447944

molecular target: hIKK-epsilon (Homo sapiens, UniProt Q14164)
Sequence (Q14164 whole entry): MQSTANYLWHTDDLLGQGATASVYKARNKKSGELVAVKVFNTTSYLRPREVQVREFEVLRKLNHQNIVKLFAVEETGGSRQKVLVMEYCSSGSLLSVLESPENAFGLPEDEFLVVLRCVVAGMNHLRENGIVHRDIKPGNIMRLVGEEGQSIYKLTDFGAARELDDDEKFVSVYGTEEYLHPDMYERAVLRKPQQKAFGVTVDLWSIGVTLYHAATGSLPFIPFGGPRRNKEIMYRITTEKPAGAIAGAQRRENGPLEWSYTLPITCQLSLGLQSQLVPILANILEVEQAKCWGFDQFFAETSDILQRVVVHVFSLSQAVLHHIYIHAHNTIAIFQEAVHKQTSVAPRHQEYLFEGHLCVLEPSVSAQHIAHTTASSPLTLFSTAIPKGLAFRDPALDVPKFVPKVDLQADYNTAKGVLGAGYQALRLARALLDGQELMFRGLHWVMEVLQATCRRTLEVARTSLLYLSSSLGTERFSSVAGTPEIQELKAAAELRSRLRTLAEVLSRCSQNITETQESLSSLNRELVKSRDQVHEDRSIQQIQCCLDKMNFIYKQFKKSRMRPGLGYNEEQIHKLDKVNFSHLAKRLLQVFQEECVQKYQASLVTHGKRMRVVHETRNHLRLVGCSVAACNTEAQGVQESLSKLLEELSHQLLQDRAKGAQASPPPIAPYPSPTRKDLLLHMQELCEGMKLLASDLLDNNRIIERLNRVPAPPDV
pIC50: −log10 of the molar value.
property name: pIC50

compound: Cc1cn(CCN2CCN(c3ccccc3-c3cc(C#N)cc(C(=O)NCCCN4CCCC4)c3)CC2)c2ccccc12 [LLY-507]
recorded measurement: < 4.70

* * *

molecular target: hRET(V804L) (Homo sapiens, UniProt P07949, V804L); assay: KINOMEscan
Sequence (P07949 29-1114 V804L): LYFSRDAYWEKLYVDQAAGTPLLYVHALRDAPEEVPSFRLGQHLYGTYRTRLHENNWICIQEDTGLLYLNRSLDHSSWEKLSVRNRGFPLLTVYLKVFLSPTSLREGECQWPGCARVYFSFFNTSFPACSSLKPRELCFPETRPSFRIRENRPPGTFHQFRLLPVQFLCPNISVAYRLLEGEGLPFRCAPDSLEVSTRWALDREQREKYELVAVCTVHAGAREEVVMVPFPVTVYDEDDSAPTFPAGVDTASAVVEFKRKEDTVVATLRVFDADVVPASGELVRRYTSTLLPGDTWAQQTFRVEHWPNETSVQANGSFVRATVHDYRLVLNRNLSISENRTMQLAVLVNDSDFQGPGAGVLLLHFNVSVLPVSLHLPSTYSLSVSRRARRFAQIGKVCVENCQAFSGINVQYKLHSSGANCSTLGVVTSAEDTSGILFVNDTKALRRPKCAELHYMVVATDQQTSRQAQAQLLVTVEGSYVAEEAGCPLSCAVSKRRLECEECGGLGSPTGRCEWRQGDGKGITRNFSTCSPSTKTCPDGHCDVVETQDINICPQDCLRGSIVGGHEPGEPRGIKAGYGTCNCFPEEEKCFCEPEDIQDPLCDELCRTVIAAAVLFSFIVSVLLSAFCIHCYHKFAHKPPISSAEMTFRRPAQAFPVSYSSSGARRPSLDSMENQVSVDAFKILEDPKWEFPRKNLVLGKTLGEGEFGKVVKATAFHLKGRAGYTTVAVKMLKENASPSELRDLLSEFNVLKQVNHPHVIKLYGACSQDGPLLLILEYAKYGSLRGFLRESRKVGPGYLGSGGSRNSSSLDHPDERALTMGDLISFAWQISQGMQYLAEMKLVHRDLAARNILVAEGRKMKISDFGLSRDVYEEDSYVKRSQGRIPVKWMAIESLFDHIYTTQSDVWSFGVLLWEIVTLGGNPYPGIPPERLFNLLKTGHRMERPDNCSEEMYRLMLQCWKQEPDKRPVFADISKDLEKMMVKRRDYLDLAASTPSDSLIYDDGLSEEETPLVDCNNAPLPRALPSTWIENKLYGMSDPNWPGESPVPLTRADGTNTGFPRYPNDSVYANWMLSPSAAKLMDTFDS

test smiles: Cc1cn(CCN2CCN(c3ccccc3-c3cc(C#N)cc(C(=O)NCCCN4CCCC4)c3)CC2)c2ccccc12
IC50: > 20 µM

* * *

target: hAMPK-alpha2 (Homo sapiens, UniProt P54646)
Sequence (P54646 whole entry): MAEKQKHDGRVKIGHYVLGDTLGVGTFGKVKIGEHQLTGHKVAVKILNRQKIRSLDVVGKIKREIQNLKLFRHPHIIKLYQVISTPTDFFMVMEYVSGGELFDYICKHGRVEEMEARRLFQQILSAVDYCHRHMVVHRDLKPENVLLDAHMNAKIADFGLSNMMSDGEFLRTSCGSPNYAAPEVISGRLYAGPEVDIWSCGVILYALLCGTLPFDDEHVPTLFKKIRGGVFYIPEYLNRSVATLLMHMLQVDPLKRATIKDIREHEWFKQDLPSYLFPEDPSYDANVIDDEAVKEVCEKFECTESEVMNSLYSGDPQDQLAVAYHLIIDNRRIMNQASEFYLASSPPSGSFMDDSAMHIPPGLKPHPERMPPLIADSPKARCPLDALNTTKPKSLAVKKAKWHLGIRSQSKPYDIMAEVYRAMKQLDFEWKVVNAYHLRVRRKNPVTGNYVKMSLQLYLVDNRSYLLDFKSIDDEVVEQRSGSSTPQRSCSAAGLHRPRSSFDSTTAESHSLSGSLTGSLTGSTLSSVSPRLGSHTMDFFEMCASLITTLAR

test smiles: Cc1cn(CCN2CCN(c3ccccc3-c3cc(C#N)cc(C(=O)NCCCN4CCCC4)c3)CC2)c2ccccc12
target or system: hAMPK-alpha2 (Homo sapiens, UniProt P54646)
IC50: > 20 µM
